System: tubulin
Test: Tubulin polymerization assay
Type: biochemical
Design: key: a compound showing 0 to 50% inhibition at 20 μM is reported as score 1; Score 2 compounds are defined as compound showing more than 50% inhibition at 20 μM and less than 50% inhibition at 5 μM; a compound showing more than 50% inhibition at 5 μM is reported as score 3
Conditions: tested at 20 μM and 5 μM
Procedure: The tubulin polymerization assay is an adaptation of an assay originally described by Bonne, D. et al. (J. Biol. Chem., 1985, 260:2819-25). […] Compounds were added to 25 μl of the reaction mix in 96-well PP plates (Corning) on ice and 10 μl of this mixture was dispensed into duplicates of the 384-well Proxiplates pre-warmed to 37° C. in a Fluoroskan Ascent plate reader (Thermo Scientific). Fluorescence measurements were taken every minute for one hour. […]
Reported tubulin polymerisation score values for the following compounds.

Please review the entries below; each comes with its answer.
CCc1cc2ccc(C(C)(C#N)Cc3ccc(F)cc3)cc2[nH]c1=O (centres unmarked)	2
CCc1cc2ccc(C(C)(C#N)CCOc3ccccc3Cl)cc2[nH]c1=O (centres unmarked)	2

// next item, tubulin polymerisation score requested
Qu. What reported tubulin polymerisation score corresponds to CCOc1cccc(CC(C)(C#N)c2ccc3cc(CC)c(=O)[nH]c3c2)c1 (centres unmarked) on tubulin?
Ans. 2

----------
system: PC3 cells; experiment: EB1 Comet (microtubule disruption) assay; assay type: cell-based, human; details: Homo sapiens, PC-3, 1 h, 1 hour treatment, read-out: EB1 pLAC (converted)
Reported minimal effective concentration values for the following compounds.
# number only, unit µM dropped from output

CCc1cc2ccc(C(C)(C#N)Cc3c(F)c(F)c(F)c(F)c3F)cc2[nH]c1=O (stereo not shown)	0.316
CCc1cc2ccc(C(C)(C#N)Cc3cc(F)ccc3F)cc2[nH]c1=O (stereo not shown)	1
CCc1cc2ccc(C(C#N)(CC)Cc3cccc(C#N)c3)cc2[nH]c1=O (stereo not shown)	1
CCc1cc2ccc(C(C)(C#N)Cc3cccc(OCc4ccccc4)c3)cc2[nH]c1=O (stereo not shown)	10
CCc1cc2ccc(C(C)(C#N)CN3CCc4ccccc4C3)cc2[nH]c1=O (stereo not shown)	3.16
CCc1cc2ccc(C(C#N)(Cc3ccccc3)C3CC3)cc2[nH]c1=O (stereo not shown)	1

Qu. Fill blank: measured minimal effective concentration of the compound CCc1cc2ccc(C(C)(C#N)Cc3ccnc(C#N)c3)cc2[nH]c1=O (stereo not shown) is ____.
Ans. 1

Qu. // same read-out, input: CCOC(=O)c1cccc(CC(C)(C#N)c2ccc3cc(CC)c(=O)[nH]c3c2)n1 (stereo not shown)
Ans. 0.316

Qu. // same read-out, input: CCc1cc2ccc(C(C)(C#N)Cc3cc(C#N)nc(C)n3)cc2[nH]c1=O (stereo not shown)
Ans. 1

Qu. // same read-out, input: Cc1cc2ccc([C@@](C)(C#N)C3CCc4ccccc43)cc2[nH]c1=O (single isomer, unassigned)
Ans. 10

----------
Target: Human PARP-1 enzyme (Homo sapiens, UniProt P09874)
Construct: purchased Trevigen
Sequence (P09874 whole entry): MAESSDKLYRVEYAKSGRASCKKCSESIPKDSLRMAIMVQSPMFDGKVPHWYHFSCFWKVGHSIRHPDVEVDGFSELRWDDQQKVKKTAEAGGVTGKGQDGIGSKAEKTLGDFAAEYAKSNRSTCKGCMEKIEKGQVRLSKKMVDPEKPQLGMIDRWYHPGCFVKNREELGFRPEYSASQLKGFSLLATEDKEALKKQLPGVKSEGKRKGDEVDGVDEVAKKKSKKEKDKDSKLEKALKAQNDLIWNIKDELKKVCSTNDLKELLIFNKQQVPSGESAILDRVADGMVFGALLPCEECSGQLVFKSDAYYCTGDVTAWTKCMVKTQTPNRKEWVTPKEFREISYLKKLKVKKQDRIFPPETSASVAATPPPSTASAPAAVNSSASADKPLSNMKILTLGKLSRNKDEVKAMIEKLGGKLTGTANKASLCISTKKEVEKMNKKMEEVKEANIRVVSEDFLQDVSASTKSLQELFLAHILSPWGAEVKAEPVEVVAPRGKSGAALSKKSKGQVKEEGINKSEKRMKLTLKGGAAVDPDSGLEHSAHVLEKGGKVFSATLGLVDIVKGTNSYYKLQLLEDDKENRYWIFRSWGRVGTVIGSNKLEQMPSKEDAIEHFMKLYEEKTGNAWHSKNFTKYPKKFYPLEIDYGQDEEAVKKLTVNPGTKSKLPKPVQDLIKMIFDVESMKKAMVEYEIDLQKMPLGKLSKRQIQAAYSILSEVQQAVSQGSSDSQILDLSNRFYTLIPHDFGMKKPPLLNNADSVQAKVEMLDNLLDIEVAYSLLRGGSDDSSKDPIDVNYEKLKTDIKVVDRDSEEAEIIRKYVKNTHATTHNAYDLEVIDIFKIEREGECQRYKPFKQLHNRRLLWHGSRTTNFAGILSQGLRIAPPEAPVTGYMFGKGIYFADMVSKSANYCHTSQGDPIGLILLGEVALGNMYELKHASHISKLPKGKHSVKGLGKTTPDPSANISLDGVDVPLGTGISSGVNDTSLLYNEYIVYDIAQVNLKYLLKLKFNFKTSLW
Assay: In vitro Scintillation Proximity Assay (SPA) for PARP-1 inhibitory activity
Type: biochemical
Details: read-out: in vitro SPA assay PARP-1 pIC50 (converted)
Method: Compounds of the present invention were tested in an in vitro assay based on SPA technology (proprietary to GE healthcare). […] Histones (type II-A, supplier: Sigma) were biotinylated using the biotinylation kit of Amersham and stored aliquoted at −20° C. […] The beads were sedimented by centrifugation (10 min, 800 rpm). and plates transferred to a TopCountNXT™ (Packard) for scintillation counting, values were expressed as counts per minute (cpm). […]
Label Fulfilled when IC50 is strictly below 300 nM; otherwise label Not fulfilled.

CCc1cc2ccc(C(C)(C#N)Cc3cccc(CN4CCN(C)CC4)c3)cc2[nH]c1=O (stereo not shown) [Compound 57]	Not fulfilled
CCc1cc2ccc(C(C)(C#N)Cc3cccc(C#N)n3)cc2[nH]c1=O (single isomer, unassigned) [Compound 206]	Fulfilled
CCc1cc2ccc(C(C)(C#N)Cc3ccc(C(F)(F)F)nc3C)cc2[nH]c1=O (stereo not shown) [Compound 340]	Fulfilled

Qu. Does this compound meet the criterion IC50 < 300 nM? CCc1cc2ccc(C(C)(C#N)CN3CCN(c4ccccn4)CC3)cc2[nH]c1=O (stereo not shown) [Compound 233]
Ans. Fulfilled

Qu. // same read-out, input: CCc1cc2ccc(C(C)(C#N)Cc3ccnc(Cl)c3)cc2[nH]c1=O (stereo not shown) [Compound 341]
Ans. Fulfilled

Qu. // same read-out, input: CCc1cc2ccc(C(C)(C#N)Cc3ccnc(F)c3)cc2[nH]c1=O (stereo not shown) [Compound 330]
Ans. Fulfilled
